assay: in vivo; parameters: species or system mice; details: male, NODSCID 1L2RγKO, mouse, iv, total radioactivity, Seminal uptake
For each record, write down the corresponding tissue uptake at 4 h.
Return type: number; implicit unit %ID/g.

IN: Need tissue uptake at 4 h, item COc1ccc(CCCC(=O)NCC(=O)N[C@@H](CCCCNC(=O)CN2CCN(CC(=O)O)CCN(CC(=O)O)CCN(CC(=O)O)CC2)C(=O)NC[C@H]2CC[C@H](C(=O)N[C@@H](Cc3c4ccccc4cc4ccccc34)C(=O)NCCCC[C@H](NC(=O)N[C@@H](CCCC(=O)O)C(=O)O)C(=O)O)CC2)cc1 [177Lu-HTK03170, metal not drawn]
OUT: 0.49

IN: Need tissue uptake at 4 h, item O=C(O)CCC[C@H](NC(=O)N[C@@H](CCCCNC(=O)[C@H](Cc1c2ccccc2cc2ccccc12)NC(=O)[C@H]1CC[C@H](CNC(=O)CN2CCN(CC(=O)O)CCN(CC(=O)O)CCN(CC(=O)O)CC2)CC1)C(=O)O)C(=O)O [177Lu-HTK03149, metal not drawn]
OUT: 0.04
